experiment_notes: blockers of RIG-like receptor reporter activation – cell-based, Sendai virus stimulus, luciferase, 10K MLSCN set, TLR/RLR signaling modifier project, primary screen (AID 602276);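 note: firefly luciferase from ISG56 promoter only with Renilla not read in this screen; 0% = Sendai virus plus DMSO and 100% = medium plus DMSO without virus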
condition_details: HEK293 RL24 IRF3 luciferase reporter, at 10 µM, stronger effect = higher value
recorded_metric: inhibition (%)
Answer in %, number only, no unit symbol.

Asked: Which inhibition value belongs to CCOC(=O)c1cccc(NC(=O)CSc2nc3cccnc3n2C)c1 ?
Given back: -4.22

Asked: Which inhibition value belongs to COCCNC(=O)c1ccc(CS(=O)(=O)c2ccc(OC)cc2)o1 ?
Given back: 9.76

Asked: Which inhibition value belongs to CCOC(=O)CSc1nnc(-c2cccnc2)n1Cc1ccccc1 ?
Given back: -4.13

Asked: Which inhibition value belongs to COCCCNS(=O)(=O)c1ccc2c(c1)CCN2C(C)=O ?
Given back: 15.1

Asked: Which inhibition value belongs to CN1CCN(S(=O)(=O)c2ccc(Sc3nnc(-c4cccs4)n3-c3ccccc3)nc2)CC1 ?
Given back: 1.81

Asked: Which inhibition value belongs to O=C(Nc1nc(-c2ccccc2)cs1)C1CCCO1 (stereo unspecified) ?
Given back: -12.1

Asked: Which inhibition value belongs to CCOc1ccccc1NS(=O)(=O)c1c(C)noc1C ?
Given back: 0.4

Asked: Which inhibition value belongs to COCCn1c(Sc2nc(C)cs2)nc2c1c(=O)[nH]c(=O)n2C ?
Given back: 17.1

Asked: Which inhibition value belongs to Cc1ccc2occ(CN3CCN(c4ccccc4)CC3)c(=O)c2c1 ?
Given back: 15.8

Asked: Which inhibition value belongs to CCOC(=O)C1CCN(C(=O)CN(Cc2ccccc2)S(C)(=O)=O)CC1 ?
Given back: 10

Asked: Which inhibition value belongs to COc1ccc(CCNC(=O)COc2ccc(S(=O)(=O)N3CCOCC3)cc2)cc1 ?
Given back: 12.7

Asked: Which inhibition value belongs to CCOC(=O)N1CCC(NC(=O)Cn2cc3c(n2)CCC(C)C3)CC1 (stereo unspecified) ?
Given back: -10.4

Asked: Which inhibition value belongs to COc1cc2c(cc1OC)C(c1ccccc1O)N(C1CC(=O)N(c3ccccc3)C1=O)CC2 (stereo unspecified) ?
Given back: 15.9

Asked: Which inhibition value belongs to Cc1[nH]c(=O)[nH]c(=O)c1S(=O)(=O)N1CCCC(C(=O)NCc2ccco2)C1 (stereo unspecified) ?
Given back: -2.81

Asked: Which inhibition value belongs to Cn1c(=O)[nH]c(=O)c2c1nc(Br)n2CCCSc1nc2ccccc2o1 ?
Given back: 17.2

Asked: Which inhibition value belongs to CCOC(=O)c1ccc2[nH]c3c(c2c1)CCCCC3=O ?
Given back: -36.8

Asked: Which inhibition value belongs to Cc1c(C(=O)O)sc2nc3n(c(=O)c12)CCC(C)CC3 (stereo unspecified) ?
Given back: 6.81

Asked: Which inhibition value belongs to CCOc1ccc2ccccc2c1/C=N/n1cncn1 ?
Given back: 11.7

Asked: Which inhibition value belongs to c1ccc2c(c1)C(=Nn1cnnc1)c1ccccc1-2 ?
Given back: 10.6

Asked: Which inhibition value belongs to Cc1cc(S(=O)(=O)N2CCN(c3ccccc3C)CC2)ccc1F ?
Given back: 14.2

Asked: Which inhibition value belongs to O=C(CSc1nnc(-c2ccco2)n1CC1CCCO1)N1CCCCC1 (stereo unspecified) ?
Given back: 13.1

Asked: Which inhibition value belongs to O=c1nc(N2CCCC2)nc(Nc2ccccc2)[nH]1 ?
Given back: 3.72

Asked: Which inhibition value belongs to O=c1oc2c3c4c(cc2cc1-c1nc2ccccc2[nH]1)CCCN4CCC3 ?
Given back: -24.1

Asked: Which inhibition value belongs to CSc1nc(N2CCOCC2)c2ccccc2n1 ?
Given back: 6.41

Asked: Which inhibition value belongs to O=C1CC(Sc2nnc(-c3ccccc3)o2)C(=O)N1c1ccccc1 (stereo unspecified) ?
Given back: 4.52

Asked: Which inhibition value belongs to COc1cc(CN2CCSCC2)cc(OC)c1OC ?
Given back: -4.06

Asked: Which inhibition value belongs to O=C(CS(=O)(=O)Cc1ccccc1)N1CCc2ccccc2C1 ?
Given back: -17.6

Asked: Which inhibition value belongs to Cc1noc(/C=C/N(C)C)c1S(=O)(=O)N1CCCC(C(=O)N2CCCCC2)C1 (stereo unspecified) ?
Given back: 7.18

Asked: Which inhibition value belongs to Cc1ccccc1Cn1c(=O)c2c(nc3n2CCCN3Cc2ccccc2)n(C)c1=O ?
Given back: 22.9

Asked: Which inhibition value belongs to CCOC(=O)C1C(=O)N(C(=O)c2ccc(OC)cc2)CC1c1ccccc1 (stereo unspecified) ?
Given back: 12.3

Asked: Which inhibition value belongs to CCCCCCn1c(CN2CCN(Cc3ccccc3)CC2)nc2c1c(=O)n(C)c(=O)n2C ?
Given back: 23

Asked: Which inhibition value belongs to Cc1cccc(NC(=O)CC2CCC2)c1 ?
Given back: 3.07

Asked: Which inhibition value belongs to Cc1cc(NC(=O)C2CCCC2)nc2c1c(=O)oc1ccccc12 ?
Given back: 7.38

Asked: Which inhibition value belongs to CCOc1ccc(S(=O)(=O)Nc2cccc(Cl)c2)cc1 ?
Given back: 38.8

Asked: Which inhibition value belongs to CNC(=O)c1ccc2nc(NC(C)=O)sc2c1 ?
Given back: -11.9

Asked: Which inhibition value belongs to CCOc1ccccc1-c1nc(-c2ccc(NC(=O)Cc3ccccc3OC)cc2)no1 ?
Given back: -18.2

Asked: Which inhibition value belongs to CCC1(C)Cc2c(C#N)c(N)n(-c3ccccc3)c(=O)c2CO1 (stereo unspecified) ?
Given back: -3.47

Asked: Which inhibition value belongs to O=C(NCc1ccccc1)C1CCCN(S(=O)(=O)c2cccnc2)C1 (stereo unspecified) ?
Given back: 5.96

Asked: Which inhibition value belongs to COC(=O)C1=C(N)OC2=C(C(=O)CCC2)C1c1cccs1 (stereo unspecified) ?
Given back: 2.58

Asked: Which inhibition value belongs to CCCCOC(=O)c1cccc(NC(=O)CC)c1 ?
Given back: -34.7

Asked: Which inhibition value belongs to Cc1ccc(CC2SC(=O)NC2=O)cc1Cl (stereo unspecified) ?
Given back: 10.2

Asked: Which inhibition value belongs to COc1cc(N=c2ssnc2Cl)cc(OC)c1 ?
Given back: -6.83

Asked: Which inhibition value belongs to O=C(C1CCN(S(=O)(=O)Cc2ccccc2)CC1)N1CCN(c2ncccn2)CC1 ?
Given back: -3.88

Asked: Which inhibition value belongs to COc1ccccc1N(CC(=O)NC1CCCC1)C(=O)CCC(=O)Nc1cc(C)on1 ?
Given back: -11.8

Asked: Which inhibition value belongs to COCCNc1nc(SCC(=O)N2CCN(c3ccccc3)CC2)nc2ccccc12 ?
Given back: -2.13

Asked: Which inhibition value belongs to COc1ccccc1OCC(=O)Nc1ccc(S(=O)(=O)Nc2nc(C)cc(C)n2)cc1 ?
Given back: 11.5
